All figures here come from patent US20140288110A1.

Measured Adip. accompanies every entry in the list below.
Tested on: 3T3-L1 / MEFs
Protocol: Adipocyte differentiation assay, induction, Oil Red O staining
Type: cell-based, mouse
Design: key: 0: representing similar results to DPD; −1: representing even less adipocyte differentiation; +1: representing more adipocyte differentiation (both relative to DPD)
Test Conditions: adipocyte differentiation relative to DPD (SN1), Oil Red O staining
Could you keep your reply to the number by itself?

Worked cases, answers included:
1. CC(C)[C@H]1OC[C@@H](C/C=C\CCC(=O)O)[C@@H](c2ccccc2O)O1 ... 0
2. C/C=C/CC1OC[C@@H](C/C=C\CCC(=O)O)[C@@H](c2ccccc2O)O1 (stereo partly shown) ... −1

Problem: Return value of Adip. for input O=C(O)CC/C=C\C[C@@H]1COC(c2cccc3ccccc23)O[C@@H]1c1ccccc1O (stereo partly shown) , no commentary.
Result: 0

Problem: Return value of Adip. for input "O=C(O)CCCCCCC[C@@H]1CO[C@H](c2ccccc2Cl)O[C@@H]1c1ccccc1O" , no commentary.
Result: 0

* * *

Test system: 3T3-L1 / MEFs
Protocol: Adipocyte differentiation assay, induction, Oil Red O staining
Format: cell-based, mouse
Parameters: key: 0: representing similar results to DPD; −1: representing even less adipocyte differentiation; +1: representing more adipocyte differentiation (both relative to DPD)
Test Conditions: adipocyte differentiation relative to DPD (SN1), Oil Red O staining
Readout: Adip.
Could you keep your reply to the number by itself?

1. O=C(O)CC/C=C\C[C@@H]1COC2(CCCCC2)O[C@@H]1c1ccccc1O ... 0
2. O=C(O)CC/C=C\C[C@@H]1CO[C@H](C2CCCCC2)O[C@@H]1c1ccccc1O ... 0

Problem: Return value of Adip. for input O=C(O)CC/C=C\C[C@@H]1COC(c2ccccc2-c2ccccc2)O[C@@H]1c1ccccc1O (mixture of isomers) , no commentary.
Result: 0

* * *

System: 3T3-L1 / MEFs
Protocol: Adipocyte differentiation assay, induction, Oil Red O staining
Type: cell-based, mouse
Design: key: 0: representing similar results to DPD; −1: representing even less adipocyte differentiation; +1: representing more adipocyte differentiation (both relative to DPD)
Test Conditions: adipocyte differentiation relative to DPD (SN1), Oil Red O staining
Readout: Adip.

Worked cases, answers included:
1. COc1cccc([C@H]2OC[C@@H](C/C=C\CCC(=O)O)[C@@H](c3ccccc3O)O2)c1OC (mixture of isomers) ... 0
2. COc1ccc(Oc2ccccc2C2OC[C@@H](C/C=C\CCC(=O)O)[C@@H](c3ccccc3O)O2)cc1 (mixture of isomers) ... 0
3. O=C(O)CC/C=C\C[C@@H]1COC2(CCNCC2)O[C@@H]1c1ccccc1O ... −1
4. O=C(O)CC/C=C\C[C@@H]1COC(c2ccccc2F)O[C@@H]1c1ccccc1O (mixture of isomers) ... 0

Problem: Return value of Adip. for input "O=C(O)CC/C=C\C[C@@H]1CO[C@H](c2ccccc2Cl)O[C@@H]1c1ccccc1O" , no commentary.
Result: 0

Problem: Return value of Adip. for input CCCCCC1OC[C@@H](C/C=C\CCC(=O)O)[C@@H](c2ccccc2O)O1 (stereo partly shown) , no commentary.
Result: +1

Problem: Return value of Adip. for input "COc1ccccc1[C@H]1OC(C)(C)OC[C@H]1C/C=C\CCCCC(=O)O" , no commentary.
Result: 0

* * *

Tested on: PPARgamma ligand-binding domain (Gal4-PPARgammaLBD)
Protocol: PPARgamma transactivation assay (Gal4-PPARgammaLBD, UASx4-TK luc reporter)
Assay type: cell-based
Description: This is an example of a transactivation assay for determining PPAR gamma modulating activity. The UASx4-TK-luc reporter construct (where UAS refers to “upstream activator sequence”) contains four Gal4-responsive elements. The plasmid Gal4-PPARgammaLBD encodes a Gal4-DBD-PPARgamma-LBD fusion protein (i.e. the DNA-binding domain, DBD, of Gal4 fused to the ligand-binding domain, LBD, of PPARgamma) capable of transactivating the UASx4-TK-luc reporter plasmid by binding to the UAS. […]
Readout: PPAR gamma modulating activity, in words

1) O=C(O)CC/C=C\C[C@@H]1COC(c2coc3ccc(Cl)cc3c2=O)O[C@@H]1c1ccccc1O (stereo partly shown) ... higher potency
2) COc1ccc(Oc2ccccc2C2OC[C@@H](C/C=C\CCC(=O)O)[C@@H](c3ccccc3O)O2)cc1 (mixture of isomers) ... higher potency
